Reported values of EC50 for individual entries
target: human androgen receptor (Homo sapiens); construct: expressed in transfected cells; host or cells: HEK293; test: Reporter assay of an androgen receptor responsive sequence (luciferase, transiently transfected HEK293 cells); assay type: cell-based; conditions: 24 hours incubation, relative to activity of 100 nM DHT, read-out: AR transcriptive activity (pEC50) (converted)
Sequence (P10275 whole entry): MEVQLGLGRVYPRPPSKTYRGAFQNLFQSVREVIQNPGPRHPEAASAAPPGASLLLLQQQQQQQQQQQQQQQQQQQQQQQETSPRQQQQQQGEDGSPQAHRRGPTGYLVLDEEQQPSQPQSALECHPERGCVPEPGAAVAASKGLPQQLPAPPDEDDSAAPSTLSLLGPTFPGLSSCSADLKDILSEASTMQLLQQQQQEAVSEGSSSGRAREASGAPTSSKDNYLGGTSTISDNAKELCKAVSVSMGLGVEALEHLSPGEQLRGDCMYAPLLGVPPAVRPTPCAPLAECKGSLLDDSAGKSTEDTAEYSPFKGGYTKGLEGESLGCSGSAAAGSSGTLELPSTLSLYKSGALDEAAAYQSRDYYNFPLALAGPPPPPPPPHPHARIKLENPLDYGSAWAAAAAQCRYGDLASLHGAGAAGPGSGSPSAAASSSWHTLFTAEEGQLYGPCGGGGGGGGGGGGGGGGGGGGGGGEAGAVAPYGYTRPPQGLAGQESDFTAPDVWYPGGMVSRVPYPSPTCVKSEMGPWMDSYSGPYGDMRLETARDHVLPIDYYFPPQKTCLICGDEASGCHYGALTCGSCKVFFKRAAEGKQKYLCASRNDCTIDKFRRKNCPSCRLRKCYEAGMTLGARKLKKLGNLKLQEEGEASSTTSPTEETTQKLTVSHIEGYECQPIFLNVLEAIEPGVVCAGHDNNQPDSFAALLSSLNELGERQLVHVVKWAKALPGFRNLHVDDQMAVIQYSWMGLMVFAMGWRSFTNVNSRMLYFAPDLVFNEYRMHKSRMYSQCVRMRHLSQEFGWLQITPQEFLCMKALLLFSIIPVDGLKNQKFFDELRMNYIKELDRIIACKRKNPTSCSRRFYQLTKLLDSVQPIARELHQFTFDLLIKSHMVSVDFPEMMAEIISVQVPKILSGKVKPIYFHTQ
Measured property: EC50 (nM)

INSERT INTO results (compound, measured_property, unit_abbreviation, observed_measurement) VALUES
  ('Cc1sc(N(Cc2csc(C(C)C)n2)c2ccc(C#N)cc2)nc1C(=O)NS(C)(=O)=O [Compound 456]', 'EC50', 'nM', 200),
  ('COc1cccc(CN(c2ccc(C#N)cc2)c2nc(C(=O)NS(C)(=O)=O)c(C)s2)c1 [Compound 3]', 'EC50', 'nM', 126),
  ('Cc1oc(N(CCc2ccc(Cl)cc2)Cc2ccc(OC(F)(F)F)cc2)nc1C(=O)NS(C)(=O)=O [Compound 544]', 'EC50', 'nM', 316),
  ('CCc1oc(N(Cc2ccc(Cl)c(Cl)c2)c2ccc(C#N)cc2)nc1C(=O)NS(C)(=O)=O [Compound 633]', 'EC50', 'nM', 126),
  ('Cc1sc(N(Cc2ccccc2)c2ccc(C#N)cc2)nc1C(=O)NS(=O)(=O)CCC(F)(F)F [Compound 387]', 'EC50', 'nM', 398),
  ('CCCCN(c1ccc(C#N)cc1)c1nc(C(=O)NS(C)(=O)=O)c(C)s1 [Compound 64]', 'EC50', 'nM', 2510),
  ('Cc1sc(N(CCc2ccsc2)c2ccc(C#N)cc2)nc1C(=O)NS(C)(=O)=O [Compound 132]', 'EC50', 'nM', 1580),
  ('Cc1sc(N(Cc2ccccc2)c2ccc(C#N)cc2)nc1C(=O)NS(C)(=O)=O [Compound 1]', 'EC50', 'nM', 79.4);

----------
Reported values of EC50 for individual entries
target: human androgen receptor (Homo sapiens); construct: expressed in transfected cells; host or cells: HEK293; assay: Reporter assay of an androgen receptor responsive sequence (luciferase, transiently transfected HEK293 cells); format: cell-based; conditions: 24 hours incubation, relative to activity of 100 nM DHT, read-out: AR transcriptive activity (pEC50) (converted)
Measured property: EC50 (nM)

INSERT INTO assay_data (molecule, unit_abbreviation, op, observed_measurement) VALUES
  ('Cc1sc(N(Cc2ccc3nsnc3c2)c2ccc(C#N)cc2)nc1C(=O)NS(C)(=O)=O [Compound 114]', 'nM', '=', 158),
  ('CS(=O)(=O)NC(=O)c1nc(N(Cc2ccc(F)cc2)c2ccc(C#N)cc2)sc1Cl [Example 262]', 'nM', '=', 39.8),
  ('Cc1sc(N(CCC2CCCCC2)Cc2ccc(Cl)cc2)nc1C(=O)NS(=O)(=O)C(F)(F)F [Compound 723]', 'nM', '>', 10000),
  ('Cc1sc(N(Cc2ccc(OC(F)(F)F)cc2)c2ccc(C#N)cc2)nc1C(=O)NS(=O)(=O)CS(C)(=O)=O [Example 198]', 'nM', '>', 10000),
  ('Cc1sc(N(Cc2ccc(S(C)(=O)=O)cc2)c2ccc(C#N)cc2)nc1C(=O)NS(C)(=O)=O [Compound 12]', 'nM', '>', 10000),
  ('Cc1sc(N(CC2CCCCCC2)c2ccc(C#N)cc2)nc1C(=O)NS(C)(=O)=O [Compound 365]', 'nM', '=', 631),
  ('CS(=O)(=O)NC(=O)c1nc(N(Cc2ccccc2)c2ccc(C#N)cc2)sc1C(F)(F)F [Example 230]', 'nM', '=', 1260),
  ('Cc1sc(N(Cc2ccc(C(F)(F)F)c(C#N)c2)c2ccc(C#N)cc2)nc1C(=O)NS(C)(=O)=O [Example 187]', 'nM', '=', 79.4);
